Source listed as paper PMC12416549.

Target: T1, TNFR1 (Homo sapiens, UniProt P19438)
T1 chain: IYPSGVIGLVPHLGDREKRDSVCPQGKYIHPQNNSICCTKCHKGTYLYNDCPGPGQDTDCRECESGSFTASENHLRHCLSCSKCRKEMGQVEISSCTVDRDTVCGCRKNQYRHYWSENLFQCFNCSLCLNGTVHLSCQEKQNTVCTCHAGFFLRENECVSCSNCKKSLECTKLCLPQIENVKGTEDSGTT
Test: yeast display SC50
Give measured apparent Kd (screen) for each item. Keep answers brief.
Give bare numbers, in nM.

Some solved cases for reference:
BINDER: Y22V (designed binder) MTLQELLREEALRRAEAEAFRVALELLAEKFPEQKEYLLDLAEEIESQIRSLSGVDVEDVRKFLDKEWAWVKELLAEHPAELAEVEAARAARLAELRAEVEAKVAA
UNIT_OF_MEASUREMENT: nM
OBSERVED_MEASUREMENT: 0.79
//
BINDER: E10Y (designed binder) MTLQELLREYALRRAEAEAFRYALELLAEKFPEQKEYLLDLAEEIESQIRSLSGVDVEDVRKFLDKEWAWVKELLAEHPAELAEVEAARAARLAELRAEVEAKVAA
UNIT_OF_MEASUREMENT: nM
OBSERVED_MEASUREMENT: 0.653
//
BINDER: K103R (designed binder) MTLQELLREEALRRAEAEAFRYALELLAEKFPEQKEYLLDLAEEIESQIRSLSGVDVEDVRKFLDKEWAWVKELLAEHPAELAEVEAARAARLAELRAEVEARVAA
UNIT_OF_MEASUREMENT: nM
OBSERVED_MEASUREMENT: 0.446
//
BINDER: D56P (designed binder) MTLQELLREEALRRAEAEAFRYALELLAEKFPEQKEYLLDLAEEIESQIRSLSGVPVEDVRKFLDKEWAWVKELLAEHPAELAEVEAARAARLAELRAEVEAKVAA
UNIT_OF_MEASUREMENT: nM
OBSERVED_MEASUREMENT: 6.43

State the recorded apparent Kd (screen) for every item in the following list.
1. K30F (designed binder) MTLQELLREEALRRAEAEAFRYALELLAEFFPEQKEYLLDLAEEIESQIRSLSGVDVEDVRKFLDKEWAWVKELLAEHPAELAEVEAARAARLAELRAEVEAKVAA
2. E36V (designed binder) MTLQELLREEALRRAEAEAFRYALELLAEKFPEQKVYLLDLAEEIESQIRSLSGVDVEDVRKFLDKEWAWVKELLAEHPAELAEVEAARAARLAELRAEVEAKVAA
3. A11R (designed binder) MTLQELLREERLRRAEAEAFRYALELLAEKFPEQKEYLLDLAEEIESQIRSLSGVDVEDVRKFLDKEWAWVKELLAEHPAELAEVEAARAARLAELRAEVEAKVAA
4. V60F (designed binder) MTLQELLREEALRRAEAEAFRYALELLAEKFPEQKEYLLDLAEEIESQIRSLSGVDVEDFRKFLDKEWAWVKELLAEHPAELAEVEAARAARLAELRAEVEAKVAA

1: 0.539; 2: 1.05; 3: 0.49; 4: 0.49
